Target Under Test: T1, His-tagged ECD of cynomolgus monkey 4-1BB (cynomolgus monkey, UniProt Q07011 24-186 (human entry))
T1 construct: also called cynomolgus 4-1BB; cyno 4-1BB; not shown: His tag
T1 chain: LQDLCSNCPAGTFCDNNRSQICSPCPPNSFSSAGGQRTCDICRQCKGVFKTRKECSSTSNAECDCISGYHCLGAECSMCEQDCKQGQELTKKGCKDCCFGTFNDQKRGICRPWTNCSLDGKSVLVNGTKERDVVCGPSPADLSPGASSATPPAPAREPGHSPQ
Run Description: SPR (Biacore), captured antibody, His-tagged ECD analyte
Value Type: log10 of koff (log10 of the value in s⁻¹)
Scale: decimal log of koff, koff in s⁻¹.

Binder: hu106-4-hIgG4 (antibody, V domains shown, Human IgG4 constant region with the S228P mutation; also called hu106.1x.3x) VH: EVQLVQSGAEVKKPGSSVKVSCKASGYTFTSYYIYWVRQAPGQGLEWIGNIWPGNGGTFYGEKFMGRATFTADTSTSTAYMELSSLRSEDTAVYYCARRPDYSGDDYFDYWGQGTLVTVSS VL: SVELTQPPSVSVSPGQTARITCKLNSGNIGSYYVHWYQQKPGQAPVTMIYRDDKRPDGIPERFSGSSDSSSNSAFLTISGVQAEDEADYYCHSYDSTITPVFGGGTKLTVL
Recorded Number: -1.28

Exercise: I would be grateful if you could share the reported log10 of koff for hu107-1-hIgG4 (antibody, V domains shown, Human IgG4 constant region with the S228P mutation; also called hu107.1x.1x) VH: EVQLVQSGAEVKKPGSSVKVSCKASDYTFNDYWVSWVRQAPGQGLEWIGEIYPNSGATNFNGKFRGRATLTVDNSASTAYMELSSLRSEDTAVYYCTREYTRDWFAYWGQGTLVTVSS VL: DVVLTQSPLSLPVTLGQPASISCRSSQSLLDSDGNTYLYWFQQRPGQSPRRLIYLVSNLGSGVPDRFSGSGSGTDFTLKISRVEAEDVGVYYCMQPTHAPYTFGQGTKLEIK .
Key: -4.28

Exercise: I would be grateful if you could share the reported log10 of koff for hu106-1-hIgG1 (antibody, V domains shown, 310 is written here; Human IgG1 constant region bearing L234A and L235A; also called hu106.1x.1x) VH: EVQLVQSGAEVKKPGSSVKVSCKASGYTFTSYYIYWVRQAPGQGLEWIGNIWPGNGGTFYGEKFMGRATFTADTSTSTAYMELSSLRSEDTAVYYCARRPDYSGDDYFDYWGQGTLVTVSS VL: NVMLTQPHSVSESPGKTVTISCKLNSGNIGSYYVHWYQQRPGSSPTTMIYRDDKRPDGVPDRFSGSIDSSSNSASLTISGLKTEDEADYYCHSYDSTITPVFGGGTKLTVLG .
Key: -1.00

Exercise: I would be grateful if you could share the reported log10 of koff for hu107-1-hIgG1 (antibody, V domains shown, 312 is written here; Human IgG1 constant region bearing L234A and L235A; also called hu107.1x.1x) VH: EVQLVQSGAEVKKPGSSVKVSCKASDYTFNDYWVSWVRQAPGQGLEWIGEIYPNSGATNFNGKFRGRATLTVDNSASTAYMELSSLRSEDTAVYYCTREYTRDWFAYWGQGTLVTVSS VL: DVVLTQSPLSLPVTLGQPASISCRSSQSLLDSDGNTYLYWFQQRPGQSPRRLIYLVSNLGSGVPDRFSGSGSGTDFTLKISRVEAEDVGVYYCMQPTHAPYTFGQGTKLEIKR .
Key: -4.40

Exercise: I would be grateful if you could share the reported log10 of koff for hu107-3-hIgG4 (antibody, V domains shown, Human IgG4 constant region with the S228P mutation; also called hu107.1x.1y) VH: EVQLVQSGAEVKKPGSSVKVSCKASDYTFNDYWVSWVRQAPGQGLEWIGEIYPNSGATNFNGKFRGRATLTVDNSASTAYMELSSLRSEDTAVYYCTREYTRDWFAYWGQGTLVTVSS VL: DVQLTQSPSSLSASVGDRVTITCRSSQSLLDSDGNTYLYWFQQKPGKAPKRLIYLVSNLGSGVPSRFSGSGSGTDFTLTISSLQPEDFATYYCMQPTHAPYTFGQGTKVEIK .
Key: -4.15
